Target: S1P3 (Homo sapiens, UniProt Q99500)
Sequence (Q99500 whole entry, species assumed): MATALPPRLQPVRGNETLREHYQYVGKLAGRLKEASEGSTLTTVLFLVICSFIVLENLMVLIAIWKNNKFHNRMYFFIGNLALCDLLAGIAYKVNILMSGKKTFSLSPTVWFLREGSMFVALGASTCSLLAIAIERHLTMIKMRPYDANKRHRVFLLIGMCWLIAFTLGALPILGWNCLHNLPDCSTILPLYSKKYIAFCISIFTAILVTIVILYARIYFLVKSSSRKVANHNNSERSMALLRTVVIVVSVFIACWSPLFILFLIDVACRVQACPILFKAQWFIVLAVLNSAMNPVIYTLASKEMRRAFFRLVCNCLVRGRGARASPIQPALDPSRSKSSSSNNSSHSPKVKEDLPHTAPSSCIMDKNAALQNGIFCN
Assay: 35S-GTPγS binding, S1P3 membranes
Settings: membranes from CHO cells expressing S1P3; 60 min 30° C.
Where a name gives a salt, the structure may show the parent alone.
EC50 less than 2 µM is Criterion met; EC50 greater than or equal to 2 µM is Criterion not met.

Inquiry: For Cc1ccccc1-c1ccc(-c2nc(-c3ccc(C(=O)NCCC(=O)O)c(F)c3)no2)cc1C [Example 55] , is the recorded EC50 below the cut-off of 2 µM?
Reply text: Criterion not met

Inquiry: For COc1ccccc1-c1ccc(-c2nc(-c3ccc(C(=O)O)c(F)c3)no2)cc1C [Example 7] , is the recorded EC50 below the cut-off of 2 µM?
Reply text: Criterion not met

Inquiry: For Cc1ccccc1-c1ccc(-c2nc(-c3ccc(C(N)=O)c(F)c3)no2)cc1C [Example 171] , is the recorded EC50 below the cut-off of 2 µM?
Reply text: Criterion not met

Inquiry: For Cc1ccccc1-c1ccc(-c2nc(-c3ccc(C(=O)O)c(F)c3)no2)cc1CN(C)C [Example 62, Hydrochloride salt] , is the recorded EC50 below the cut-off of 2 µM?
Reply text: Criterion met

Inquiry: For Cc1ccccc1-c1ccc(-c2nc(-c3ccc(C(=O)O)c(F)c3)no2)cc1[N+](=O)[O-] [Example 11] , is the recorded EC50 below the cut-off of 2 µM?
Reply text: Criterion not met

Inquiry: For CCOc1cc(-c2nc(-c3ccc(C(=O)O)c(F)c3)no2)ccc1-c1ccccc1C [Example 102] , is the recorded EC50 below the cut-off of 2 µM?
Reply text: Criterion met

Inquiry: For COCc1cc(-c2nc(-c3ccc(F)c(CN(C)CC(=O)O)c3)no2)ccc1N1CCCCC1C (stereo not shown) [Example 152, Dihydrochloride salt] , is the recorded EC50 below the cut-off of 2 µM?
Reply text: Criterion met

Inquiry: For CCS(=O)(=O)Nc1cc(-c2nc(-c3ccc(C(=O)O)c(F)c3)no2)ccc1N1CCCCC1C (stereo not shown) [Example 67] , is the recorded EC50 below the cut-off of 2 µM?
Reply text: Criterion met

Inquiry: For CCCS(=O)(=O)Nc1cc(-c2nc(-c3ccc(C(=O)O)c(F)c3)no2)ccc1N1CCCCC1C (stereo not shown) [Example 74] , is the recorded EC50 below the cut-off of 2 µM?
Reply text: Criterion met

Inquiry: For Cc1ccccc1-c1ccc(-c2nc(-c3ccc(C(=O)O)c(F)c3)no2)cc1CN1CCOCC1 [Example 75, Trifluoroacetic acid salt] , is the recorded EC50 below the cut-off of 2 µM?
Reply text: Criterion met

Inquiry: For COCc1ccccc1-c1ccc(-c2nc(-c3ccc(C(=O)O)c(F)c3)no2)cc1COC [Example 85] , is the recorded EC50 below the cut-off of 2 µM?
Reply text: Criterion not met

Inquiry: For COCc1cc(-c2nc(-c3ccc(C(N)=O)cc3)no2)ccc1-c1ccccc1C [Example 178] , is the recorded EC50 below the cut-off of 2 µM?
Reply text: Criterion met

Inquiry: For CC1CCCCN1c1ccc(-c2nc(-c3ccc(C(=O)O)cc3F)no2)cc1C(F)(F)F (stereo not shown) [Example 27] , is the recorded EC50 below the cut-off of 2 µM?
Reply text: Criterion not met

Inquiry: For COCc1cc(-c2nc(-c3ccc(C(=O)O)c(F)c3)no2)ccc1-c1cccc(C)c1C [Example 95] , is the recorded EC50 below the cut-off of 2 µM?
Reply text: Criterion not met

Inquiry: For COCc1cc(-c2nc(-c3cccc(C(=O)NCCNC(C)=O)c3)no2)ccc1-c1ccccc1C [Example 184] , is the recorded EC50 below the cut-off of 2 µM?
Reply text: Criterion not met
